Values from ChEMBL document CHEMBL1128100

# Test system: IGR-37 cell line
# MEASUREMENT DESCRIPTION: Antiproliferative activity of compound was tested against melanoma (IgR-37) human tumor cells
# Type: functional, cell-based
Where a name gives a salt, the structure may show the parent alone.
Exercise: state measured pIC50 for each of the compounds provided.
Numbers only, as −log10 of the molar value.

Consider the reported pIC50 for these compounds:
[
  {
    "COMPOUND": "COc1cccc2c1C(=O)c1c(O)c3c(c(O)c1C2=O)C[C@@](O)(C(C)=O)C[C@@H]3O[C@H]1C[C@@H](NP(=O)(O)O)[C@H](O)[C@H](C)O1",
    "TARGET UNDER TEST": "IGR-37 cell line",
    "REPORTED PROPERTY": "pIC50",
    "RECORDED MEASUREMENT": 4.02
  },
  {
    "COMPOUND": "COc1cccc2c1C(=O)c1c(O)c3c(c(O)c1C2=O)C[C@@](O)(C(C)=O)C[C@@H]3O[C@H]1C[C@H](N)[C@H](O)[C@H](C)O1 [DAUNORUBICIN HYDROCHLORIDE]",
    "TARGET UNDER TEST": "IGR-37 cell line",
    "REPORTED PROPERTY": "pIC50",
    "RECORDED MEASUREMENT": 4.96
  },
  {
    "COMPOUND": "COc1cccc2c1C(=O)c1c(O)c3c(c(O)c1C2=O)C[C@@](O)(C(C)=O)C[C@@H]3O[C@H]1C[C@@H](N)[C@H](OP(=O)(O)O)[C@H](C)O1",
    "TARGET UNDER TEST": "IGR-37 cell line",
    "REPORTED PROPERTY": "pIC50",
    "RECORDED MEASUREMENT": 4.35
  }
]

Ask: Entry "COc1cccc2c1C(=O)c1c(O)c3c(c(O)c1C2=O)C[C@@](O)(C(C)=O)C[C@@H]3O[C@H]1C[C@@H](N)[C@H](OS(=O)(=O)O)[C@H](C)O1" : reported pIC50 = ?
Reply: 2.52

====

# Test system: EVSA-T
# MEASUREMENT DESCRIPTION: Antiproliferative activity of compound was tested against mammary carcinoma (EVSAT) human tumor cells
# Assay type: functional, cell-based
# CONDITION PARAMETERS: Homo sapiens, EVSA-T
Where a name gives a salt, the structure may show the parent alone.
REPORTED PROPERTY: IC50 (nM)
Give bare numbers, in nM.

Ask: Record lookup: for EVSA-T, what IC50 belongs to COc1cccc2c1C(=O)c1c(O)c3c(c(O)c1C2=O)C[C@@](O)(C(C)=O)C[C@@H]3O[C@H]1C[C@H](N)[C@H](O)[C@H](C)O1 [DAUNORUBICIN HYDROCHLORIDE] ?
Reply: 2000

====

# System: T-24
# MEASUREMENT DESCRIPTION: Antiproliferative activity of compound was tested against bladder carcinoma (T-24) human tumor cells
# Type: functional, cell-based
Counter-ions that a name gives are not always drawn.
REPORTED PROPERTY: IC50
Answer format: number, then unit.

Worked examples, 3 compounds total:
[
  {
    "COMPOUND": "COc1cccc2c1C(=O)c1c(O)c3c(c(O)c1C2=O)C[C@@](O)(C(C)=O)C[C@@H]3O[C@H]1C[C@@H](NP(=O)(O)O)[C@H](O)[C@H](C)O1",
    "IC50": "2 µM"
  },
  {
    "COMPOUND": "COc1cccc2c1C(=O)c1c(O)c3c(c(O)c1C2=O)C[C@@](O)(C(C)=O)C[C@@H]3O[C@H]1C[C@@H](N)[C@H](OP(=O)(O)O)[C@H](C)O1",
    "IC50": "3 µM"
  },
  {
    "COMPOUND": "COc1cccc2c1C(=O)c1c(O)c3c(c(O)c1C2=O)C[C@@](O)(C(C)=O)C[C@@H]3O[C@H]1C[C@H](N)[C@H](O)[C@H](C)O1 [DAUNORUBICIN HYDROCHLORIDE]",
    "IC50": "2 µM"
  }
]

Continue with the next compound.
Ask: State the recorded IC50 for this entry: "COc1cccc2c1C(=O)c1c(O)c3c(c(O)c1C2=O)C[C@@](O)(C(C)=O)C[C@@H]3O[C@H]1C[C@@H](N)[C@H](OS(=O)(=O)O)[C@H](C)O1"
Reply: 5500 µM
